Biological target: FLT3 (Homo sapiens)
Construct: FLT3(DKIN); made in house
Sequence (P36888 610-943 limits assumed): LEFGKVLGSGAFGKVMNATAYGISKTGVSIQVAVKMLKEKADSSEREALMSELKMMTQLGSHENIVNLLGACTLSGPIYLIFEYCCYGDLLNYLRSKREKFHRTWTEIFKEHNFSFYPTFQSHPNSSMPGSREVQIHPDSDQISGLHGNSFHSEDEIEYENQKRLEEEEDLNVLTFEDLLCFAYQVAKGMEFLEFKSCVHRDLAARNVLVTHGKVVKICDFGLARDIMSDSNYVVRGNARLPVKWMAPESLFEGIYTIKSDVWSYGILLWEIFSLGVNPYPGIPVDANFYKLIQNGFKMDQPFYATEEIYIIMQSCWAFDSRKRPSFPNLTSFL
Assay: Binding constant (Kd) measurement, phage-displayed kinase competition binding assay
Conditions: FLT3(JMminus) construct
metric.name: Binding Assay: FLT3(JMminus)

Completed entries (count: 5):
COc1cc(OC)nc(Oc2ccccc2C(=O)Nc2ccc(NC(=O)Nc3cc(C(C)(C)C)on3)cc2)n1 | + + +
Cc1ccc(-c2nc(C(=O)Nc3ccc(NC(=O)Nc4cc(C(C)(C)C)on4)cc3)cs2)cc1 | + + + +
CC(C)(C)c1cc(NC(=O)Nc2ccc(NC(=O)c3cc(Cl)nnc3Cl)cc2)no1 | + + +
CC(C)(C)c1cc(NC(=O)Nc2ccc(Nc3cc(N)nc(N)n3)cc2)no1 | + + + +
CC(C)(C)c1cc(NC(=O)Nc2ccc(NC(=O)c3cccc[n+]3[O-])cc2)no1 | + + + +

INPUT: # input molecule: `CC(C)c1sc(Cl)nc1C(=O)Nc1ccc(NC(=O)Nc2cc(C(C)(C)C)on2)cc1` ; wanted: its Binding Assay: FLT3(JMminus)
OUTPUT: + + + +

----------
System: MV4,11 cells
Test: FLT3 assay using MV4,11 cells (cellular proliferation, MTS)
Type: cell-based, human
Conditions: cell assay code CS0001
metric.name: Cell Assay: CS0001:IC50

COc1ccc(NC(=O)Nc2cc(C(F)(F)F)cc(Cl)n2)cc1 [Compound Z71] | + + +
CC(C)(C)c1cc(NC(=O)Nc2ccc(NC(=O)c3cc4cccc5c4n(c3=O)CC5)cc2)no1 [Compound N60] | + + + +
CC(C)(C)c1cc(NC(=O)Nc2ccc(NC(=O)c3cc4ccccc4[nH]3)cc2)no1 [Compound N161] | + + + +
CC(C)(C)c1cc(NC(=O)Nc2ccc(NC(=O)c3ncccc3O)cc2)no1 [Compound N134] | + + + +
CC(C)(C)c1cc(NC(=O)Nc2ccc(NC(=O)c3ccc(Oc4ccnc(C(=O)O)c4)cc3)cc2)no1 [Compound N166] | + + +
CC(C)(C)c1cc(NC(=O)Nc2ccc(NC(=O)c3ncc[nH]3)cc2)no1 [Compound N13] | + + + +

Now consider a different molecule.
INPUT: # input molecule: CC(C)(C)c1cc(NC(=O)Nc2ccc(OCc3ccc(-c4ccccc4)cc3)cc2)no1 [Compound G56] ; wanted: its Cell Assay: CS0001:IC50
OUTPUT: + + + +

----------
Test system: MV4,11 cells
Experiment: FLT3 assay using MV4,11 cells (cellular proliferation, MTS)
Assay type: cell-based, human
Details: cell assay code CS0001
metric.name: Cell Assay: CS0001:IC50

CC(C)(C)c1cc(NC(=O)Nc2ccc(OCc3ccccc3Cl)cc2)no1 | + + + +
CC(C)(C)c1cc(NC(=O)Nc2ccc(Nc3ncnc4[nH]cnc34)cc2)no1 | + + + +
CC(C)(C)c1cc(NC(=O)Nc2ccc(NC(=O)c3cccc4cccnc34)cc2)no1 | + + + +
CC(C)(C)c1cc(NC(=O)Nc2ccc(C(=O)/C=C/c3ccncc3)cc2)no1 | + + +
CC(C)(C)c1cc(NC(=O)Nc2ccc(NC(=O)c3sccc3CCc3cccc(C(F)(F)F)c3)cc2)no1 | + +

INPUT: # input molecule: `CC(C)(C)c1cc(NC(=O)Nc2ccc(NC(=O)c3c4ccccc4nc4ccccc34)cc2)no1` ; wanted: its Cell Assay: CS0001:IC50
OUTPUT: + +

INPUT: # input molecule: `CC(C)(C)c1cc(NC(=O)Nc2ccc(NC(=O)c3cscn3)cc2)no1` ; wanted: its Cell Assay: CS0001:IC50
OUTPUT: + + + +

INPUT: # input molecule: `Cn1cc(C(=O)Nc2ccc(NC(=O)Nc3cc(C(C)(C)C)on3)cc2)c(C(F)(F)F)n1` ; wanted: its Cell Assay: CS0001:IC50
OUTPUT: + + +
